- ASSAY_NOTES: Cytotoxicity against human MT4 cells after 5 days by MTT assay
- Type: cell-based
Where a SMILES comes first, the peptide text is derived from it. The star is where a group is joined. Cam = NC(=O)C*

>  <MOLECULE>
Cc1cn([C@H]2C[C@H](N=[N+]=[N-])[C@@H](CO)O2)c(=O)[nH]c1=O

>  <CC50 at 120 h>
> 100 µM

$$$$
>  <MOLECULE>
CC[C@H](C)[C@H](NC(=O)[C@H](Cc1cnc[nH]1)NC(=O)[C@H](CCCCN)NC(=O)[C@H](CC(C)C)NC(=O)[C@H](CCCCN)NC(=O)[C@H](Cc1ccc(O)cc1)NC(=O)[C@H](CCC(N)=O)NC(=O)[C@H](CCC(=O)O)NC(=O)[C@H](Cc1c[nH]c2ccccc12)NC(=O)[C@H](CCCCN)NC(=O)[C@H](CC(=O)O)NC(=O)[C@H](CC(C)C)NC(=O)[C@H](CCC(=O)O)NC(=O)CNC(C)=O)C(=O)N[C@H](C(=O)NCC(=O)N[C@@H](CSCC(N)=O)C(N)=O)C(C)C (Ac-GELDKWEQYKLKHIVGC(Cam)-NH2)

>  <CC50 at 120 h>
> 50 µM

$$$$
>  <MOLECULE>
CC[C@H](C)[C@H](NC(=O)[C@H](CCCCN)NC(=O)[C@H](CC(=O)O)NC(=O)[C@H](CC(C)C)NC(=O)[C@H](C)NC(=O)[C@H](CCC(=O)O)NC(=O)[C@H](CCCCN)NC(=O)[C@@H](NC(=O)[C@H](CC(=O)O)NC(=O)[C@H](CCCCN)NC(=O)[C@@H](NC(=O)[C@H](CC(=O)O)NC(=O)[C@@H](NC(=O)[C@H](CCCNC(=N)N)NC(C)=O)[C@@H](C)CC)C(C)C)[C@@H](C)O)C(=O)N[C@@H](CCC(=O)O)C(=O)NCC(=O)N[C@@H](CSCC(N)=O)C(N)=O

>  <CC50 at 120 h>
17 µM

$$$$
>  <MOLECULE>
CSCC[C@H](N)C(=O)NCC(=O)N[C@@H](C)C(=O)N[C@@H](CCCNC(=N)N)C(=O)N[C@@H](C)C(=O)N[C@@H](CO)C(=O)N[C@H](C(=O)N[C@@H](CC(C)C)C(=O)N[C@@H](CO)C(=O)NCC(=O)NCC(=O)N[C@@H](CCC(=O)O)C(=O)N[C@@H](CC(C)C)C(=O)N[C@@H](CC(=O)O)C(=O)N[C@@H](CCCCN)C(=O)NCC(=O)N[C@@H](CSCC(N)=O)C(N)=O)C(C)C (H-MGARASVLSGGELDKGC(Cam)-NH2)

>  <CC50 at 120 h>
> 50 µM

$$$$
>  <MOLECULE>
CC[C@H](C)[C@H](NC(=O)[C@@H](NC(=O)[C@H](CC(N)=O)NC(=O)[C@H](Cc1ccc(O)cc1)NC(=O)[C@H](CC(C)C)NC(=O)[C@H](CO)NC(=O)[C@H](CCCNC(=N)N)NC(=O)[C@H](CC(C)C)NC(=O)[C@H](CCC(=O)O)NC(=O)[C@H](CCC(=O)O)NC(=O)[C@H](CO)NC(=O)CNC(C)=O)[C@@H](C)O)C(=O)N[C@@H](C)C(=O)N[C@H](C(=O)N[C@@H](CC(C)C)C(=O)NCC(=O)N[C@@H](CSCC(N)=O)C(N)=O)C(C)C

>  <CC50 at 120 h>
> 50 µM

$$$$
>  <MOLECULE>
CC(=O)N[C@@H](CO)C(=O)N[C@@H](CCCCN)C(=O)N[C@@H](CCCCN)C(=O)N[C@@H](CCCCN)C(=O)N[C@@H](C)C(=O)N[C@@H](CCC(N)=O)C(=O)N[C@@H](CCC(N)=O)C(=O)N[C@@H](C)C(=O)N[C@@H](C)C(=O)N[C@@H](C)C(=O)N[C@@H](CC(=O)O)C(=O)N[C@H](C(=O)NCC(=O)N[C@@H](CC(N)=O)C(=O)N[C@@H](CC(N)=O)C(=O)NCC(=O)N[C@@H](CSCC(N)=O)C(N)=O)[C@@H](C)O

>  <CC50 at 120 h>
> 50 µM

$$$$
